So I've got a bunch of binders here, and I need their Human GIPR cAMP, HEK293T EC50 values.
# TARGET_UNDER_TEST: T1, full-length human GIPR with an N-terminal FLAG tag, overexpressed on HEK-293T cells (human, UniProt P48546 22-466)
# T1 sequence (looked up): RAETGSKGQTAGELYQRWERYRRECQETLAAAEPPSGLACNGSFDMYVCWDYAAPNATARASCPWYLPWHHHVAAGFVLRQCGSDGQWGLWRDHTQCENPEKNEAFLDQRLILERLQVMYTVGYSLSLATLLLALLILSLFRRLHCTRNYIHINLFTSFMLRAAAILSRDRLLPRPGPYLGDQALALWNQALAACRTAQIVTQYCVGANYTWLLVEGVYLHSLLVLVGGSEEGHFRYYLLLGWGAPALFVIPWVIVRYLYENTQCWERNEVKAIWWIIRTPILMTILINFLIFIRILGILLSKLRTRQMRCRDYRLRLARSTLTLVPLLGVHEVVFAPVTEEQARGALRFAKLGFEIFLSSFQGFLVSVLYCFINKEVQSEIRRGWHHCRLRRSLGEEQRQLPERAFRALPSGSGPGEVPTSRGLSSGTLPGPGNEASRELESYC
# PROCEDURE_DETAILS: cell-based or functional assay
Starred links: 1 amine or outer side, 2 acyl side, 3 side chain; linkers in the order of their positions; H or OH if unused. Non-standard residues stand in square brackets, D forms with d. Groups on a side chain read outwards from the residue. No end group written: not given here. *: point of attachment. C15 diacid = O=C(O)CCCCCCCCCCCCCC(=O)*; γGlu = O=C(O)[C@H](CCC(=O)[*:2])N[*:1]; NMeY = CN[C@@H](Cc1ccc(O)cc1)C(=O)O; Palmitoyl = CCCCCCCCCCCCCCCC(=O)*; AEEA = NCCOCCOCC(=O)O; Aib = CC(C)(N)C(=O)O
One number for each entry, in pM.

YXEGTFISDYSIALDRXAQXDFVNWLLAQSPSSGAPPPS (N-terminal Me (Me-Tyr1); Aib at 2, 20; Km = Lys(R) at 17, linker printed GS (read as G5 = GGGGG), lipid C15DA (C15 diacid); C-terminal NH2) [Compound 167] ... 0.4
YXEGTFISDYSIAXDRXAQXDFVNWLLAQXG (N-terminal Me (Me-Tyr1); Aib at 2, 17, 20; Km = Lys(R) at 14, linker printed GS (read as G5 = GGGGG), lipid C15DA (C15 diacid); K(Ac) (N-epsilon-acetyllysine) at 30; C-terminal OH) [Compound 181] ... 0.4

For every listed record, write down its Human GIPR cAMP, HEK293T EC50.
1. Me-YGEGTFISDYSIALDR[Aib]AQ[Aib]K([2OEG-γGlu-γGlu-C15 diacid])FVNWLLAQKG-OH [Compound 206]
2. Me-Y[Aib]EGTFISDYSIALDR[Aib]AQ[Aib]K([2OEG-C15 diacid])FVNWLLAQKG-OH [Compound 218]
3. Me-Y[Aib]EGTFISDYSIALDR[Aib]AQ[Aib]KFVNWLLAQKG-OH (not fully specified (residues 1, 21)) [Compound 212]
4. [NMeY][Aib]EGTFISDYSI[Aib]LDR[Aib]AQ[Aib]K([AEEA-AEEA-γGlu-γGlu-Palmitoyl])FVNWLLAQRG-OH (not fully specified (N-terminus)) [Compound 203]
5. Me-Y[Aib]EGTFISDYSIALDR[Aib]AQ[Aib]K([AEEA-AEEA-γGlu-γGlu-C15 diacid])FVNWLLAQSPG-OH [Compound 184]
6. Me-Y[Aib]EGTFISDYSIAKDR[Aib]AQ[Aib]DFVNWLLAQRG-OH (not fully specified (residues 1, 14)) [Compound 173]
7. Me-Y[Aib]EGTFISDYSIALDR[Aib]AQ[Aib]K([G5gEgE-C15 diacid])FVNWLLAQKG-OH [Compound 215]
8. YXEGTFISDYSIALDRXAQXDFVNWLLAQSG (N-terminal Me (Me-Tyr1); Aib at 2, 20; Km = Lys(R) at 17, linker printed GS (read as G5 = GGGGG), lipid C15DA (C15 diacid); C-terminal OH) [Compound 168]

Marked response:
1. 1.3
2. 0.6
3. 0.2
4. 3
5. 0.3
6. 0.5
7. 0.2
8. 0.3
